target: T1, human VEGF-A (human, UniProt P15692-4 27-191, limits assumed); test: SPR (Biacore), antibody captured by anti-human Fc, VEGF-A injected
T1 construct: also called huVEGF-A
T1 sequence (P15692 other isoform, or with tags, fused parts or gaps limits assumed): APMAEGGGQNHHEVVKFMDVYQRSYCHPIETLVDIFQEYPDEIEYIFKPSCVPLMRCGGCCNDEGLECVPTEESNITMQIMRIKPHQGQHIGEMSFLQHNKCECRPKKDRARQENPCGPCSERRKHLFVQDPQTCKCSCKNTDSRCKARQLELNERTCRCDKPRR
REPORTED_PROPERTY: pKd
Answers are plain numbers, as −log10 of the molar value.

binder="hBEW-5C3.4 (antibody, V domains shown, Humanized IgG made from pHybE vectors in HEK293 cells) VH: EIQLVQSGSELKKPGASVKVSCKASGYTFTNYGVYWVKQAPGQGLEYMGWINTETGKPTYADDFKGRFVFSLDTSVSTAYLQISSLKAEDTAVYYCARARQLDWFVYWGQGTLVTVSS VL: DTQLTQSPSSLSASVGDRVTISCRARESLTTSLSWFQQKPGKQPKLLIYGASKLESGVPSRFSGSGSGTDFTLTISSLQPEDFATYFCQQSWYDPPTFGGGTKVEIK" value_measured=11.07

In the following, a different binder is considered.
[in] Specify measured pKd for hBDB-4G8.6 (antibody, V domains shown, Humanized IgG made from pHybE vectors in HEK293 cells) VH: EIQLVQSGSELKKPGASVKVSCKASGYTFTNYGMYWVRQAPGQGLEYMGWINTETGKPTYADDFKGRFVFSLDTSVSTAYLQISSLKAEDTAVYFCARTNYYYRSYIFYFDYWGQGTMVTVSS VL: DTVLTQSPATLSLSPGERATLSCRASESVSTHMHWYQQKPGQAPRLLIYGASNLESGVPARFSGSGSGTDFTLTISSLEPEDFAVYFCQQSWNDPFTFGQGTKLEIK .
[out] 11.85

Values were extracted from patent US20170015742A1.
